assay: Tissue distribution of curcumin and THC at necropsy 15 minutes post-infusion; design: species or system Beagle dogs; conditions: both sexes, beagle, dog, in vivo, 10 mg/kg, 8 hr infusion; H3PO4 stabilized; read-out: Kp [tissue]/[plasma], Liver
READOUT_LABEL: Kp at 8 h
One number for each entry.

Query: Please list Kp at 8 h recorded for the compound COc1cc(CCC(=O)CC(=O)CCc2ccc(O)c(OC)c2)ccc1O [THC, tetrahydrocurcumin]
Result: 0.0215

###

experiment: Tissue distribution of curcumin and THC at necropsy 15 minutes post-infusion; set-up: species or system Beagle dogs; settings: both sexes, beagle, dog, in vivo, 10 mg/kg, Tissue level, Intestinal Wall, 8 hour infusion; Plus H3PO4
READOUT_LABEL: concentration at 15 min (ng/g)
Numbers only, in ng/g.

Query: Please list concentration at 15 min recorded for the compound COc1cc(CCC(=O)CC(=O)CCc2ccc(O)c(OC)c2)ccc1O [THC, tetrahydrocurcumin]
Result: 0.21
